Hello, the source for this data is the nanobody polyreactivity screen of Harvey et al. (2022), in case you need it.

Experimental Protocol: yeast display, Sf9 membrane polyspecificity reagent, FACS + sequencing; frameworks hold sequencing errors
Assay Endpoint: polyreactivity (PSR sort gate)

Worked cases, answers included:
{"columns": ["Ordered Residues", "polyreactivity (PSR sort gate)"],
 "data": [
  ["QVQLVESGGGLVQAGGSLRLSCAASGRIFAVNTMGWYRQAPGKEREFVAAISDSGGGTYYADSVKGRFTISRDNAKKTVYLQMNSLKPEDTAVYYCNAKGQRSPYSKLEYWGQGTQVTVSS", "high polyreactivity"],
  ["QVQLVESGGGLVQAGGSLRLSCAASGFIFWYYAMGWYRQAPGKERELVATITSGGSTTYADSVKGRFTISRDNAKNTVYLQMNSLKPEDTAVYYCAAKGISRYDWGQGTQVTVSS", "low polyreactivity"],
  ["QVQLVESGGGLVQAGGSLRLSCAASGMIFRRYAMGWYRQAPGKERELVAAITSGGSTYYADSVKGRFTISRDNAKKTVYLQMNSLKAEDTAVYSCAAVFYYATYSKKFEYWGQGTQVTVSS", "high polyreactivity"],
  ["QVQLVESGGGIVQEAGSLSLSCAASRLTFTTYNMGWSRPAPGKERELVAALSSRGGSTYYADSVKGRFTISRDNAKNTVYLEKNSLKPEDTAVDYCNAPRPHRMDWGQGTQVTVSS", "high polyreactivity"],
  ["QVQLVESGGGLVQAGGSLRLSCAASGSIFASNAMGWYRQAPGKEREFVAAIRYSGGITYYADSVKGRFTISRDNAKNTVYLQMNSLKPEDTAVYSCAAYGWGIRWYSRFDYWGQGTPVTVSS", "high polyreactivity"]
]}

Input line: Fill blank: measured polyreactivity (PSR sort gate) of the sequence `QVQLVESGGGLVQAGGSLRLSCAASGGTFWKYPMGWTRQAPGKERELVAAITWSGSSTYYADSVKGRFTISRDNAKNTVYLQMNSLKPEDTAVFYCAARYQPRKGAHYGYWGQGTQVTVSS` is ____.
Output line: high polyreactivity

Input line: Fill blank: measured polyreactivity (PSR sort gate) of the sequence `QEQLVESGGGLVQAGGSLRLSCAPSGSIMYVYAMGWYRPAPGKERELVAVITSGGSTTYADSVKGRFTMSRDNAKNTVYLQMNSLKPEDTAVYYCAAVPYSVYGGDYWGQGTQVTVSS` is ____.
Output line: low polyreactivity

Input line: Fill blank: measured polyreactivity (PSR sort gate) of the sequence `QVQLVESGGCLVQAGGSLRLRCAASGRTLRCYAMGWYRQAPGKEREFVAAISRGTVGTYYADSVKGRFTISRDNAKNTVYLQMNSLKPEDTAVYYCAADRFAYFTNLRLGYYSWGQGTQVTVSS` is ____.
Output line: low polyreactivity

Input line: Fill blank: measured polyreactivity (PSR sort gate) of the sequence `QVQLVESGGGLVQAGGSLRLSCAASGRIFSRYAMGWYLQAPGKERELVAAISWSGGSTYYADSVKGRFTISRDNAKNTVYLQMNSLKPEDTAVYYCAAKRQYTEYNYWGQGTQVTVSS` is ____.
Output line: high polyreactivity

Input line: Fill blank: measured polyreactivity (PSR sort gate) of the sequence `QVQLVESGGGLVQAGGSLRLICAASGSTFAYNTMGWYRPAPGKERELVAAISWRGTRTYYADSVKGRFTISRDNAKNTVYLQMNSLKPEDTAVYYCATKYGISYDYWGLGTQVTVSS` is ____.
Output line: high polyreactivity

Input line: Fill blank: measured polyreactivity (PSR sort gate) of the sequence `QVQLVESGGGLVQAGGSLRLSWAASGRTIVYYAMGWYSQAPGKEREFVAAISRSGGRTSYADSVKGRFTISRDNAKNTVYLHMNILKPDDTAVYYCAAEKRTQPTSREYYWGKGTQVTVSS` is ____.
Output line: high polyreactivity
